Parameter: melting point. Scope: all listed entries.

compound	readingUnit	melting point
CCN(CC)c1ccc(N=O)cc1	°C	87.5
O=Cc1ncc[nH]1	°C	209
c1ccc(C2=NC(c3ccccc3)C(c3ccccc3)N2)cc1 (configuration not stated)	°C	134
NNc1ccccn1	°C	46.6
NS(=O)(=O)c1ccc(SCCCCO)c(F)c1	°C	104
CC(=O)n1c(C)c(C)c2ccccc21	°C	74
CN1CCOCC1	°C	-65
OC1OC(COCc2ccccc2)C(OCc2ccccc2)C(OCc2ccccc2)C1OCc1ccccc1 (configuration not stated)	°C	152

###

melting point by entry:

compound	melting point
CN(C)c1ccc(C(Cl)=NO)cc1	165 °C
Cc1ccccc1C(=O)Cc1ccccc1C(=O)N(C)c1ccccc1	119 °C
NC(=S)Nc1ccc(Oc2ccccc2)cc1	175 to 177 °C
O=C(O)Cc1ccc(F)c(Cl)c1	57 °C
N#CC(c1ccc(Cl)cc1)N1CCOCC1 (stereo unspecified)	76 to 77 °C
CC1(C)CNC(=NN=C(C=Cc2ccc(C(F)(F)F)cc2)C=Cc2ccc(C(F)(F)F)cc2)NC1	188 °C
CCCCCOc1ccc(/N=N/c2ccc(CCCC)cc2)cc1Cl	41.5 °C
CN(C)CCOCCN(C)C	-80 °C
O=C(O)CF	35.2 °C
O=C1c2ccccc2-c2ccc3c4ccc5c6c(ccc(c7ccc1c2c73)c64)C(=O)c1ccccc1-5	492 °C
CCCCCCCCCCCCOCCOCCOCCOCCOCCOCCO	27 °C
CNC(=N[N+](=O)[O-])NCc1cnc(Cl)s1	177 °C
ClCc1noc(-c2ccsc2)n1	69 to 70 °C
C#CC1(O)CCC2C3CCC4=CC(=O)CCC4=C3C=CC21C (stereo unspecified)	169 °C
CS(=O)(=O)c1ccc(Cl)cc1	97 °C
Cc1ccc(N)c(Br)c1	26 °C
CC(C)(C)c1ccc(N=C=S)cc1	42 °C
O=S(=O)(O)CC(O)CN(CCO)CCO (stereo unspecified)	189 to 192 °C
Sc1nccc(-c2cccs2)n1	206 to 215 °C
CC(=O)Nc1ccccc1CCN(CCc1ccccc1NC(C)=O)C(C)=O	188 to 190 °C
CCOC(CCl)OCC	-45 °C
Cc1nn(C)c2ncc(C(=O)O)c(Cl)c12	269 °C
CCC(=O)Nc1c(C(=O)Cc2c(C)cc(C)cc2C)oc2ccccc12	147 to 148 °C
NC(=O)c1ccccc1N1CCCCC1	115 to 118 °C
Nc1c(Br)cc(Br)cc1[N+](=O)[O-]	130 °C
NC(=S)c1ccccc1Cl	68 to 70 °C

###

quantityMeasured: melting point (°C)

compound	reading
O=C(OCCO)c1ccccc1O	37
COc1ccc2[nH]c3c(c2c1)CCNC3C (stereo not drawn)	150
O=[N+]([O-])c1ncccc1O	71
OCc1nc2ccccc2s1	98
CC(C)(CO)C(O)C(=O)NCCCO (racemic)	68
Cc1cccc2sc3nncn3c12	187
CSc1nc(C=O)ccc1C#N	140
CC(O)C(NC(=O)OCc1ccccc1)C(=O)O (stereo not drawn)	103
O=C(C(C(=O)N1CCOCC1)c1ccccc1)N1CCOCC1	187

###

Below is a list of entries, each paired with its recorded melting point value.
quantityMeasured: melting point

compound	quantityMeasured	reading
O=C(Cl)c1cc([N+](=O)[O-])cc([N+](=O)[O-])c1	melting point	74 °C
Clc1nccc2ccc(Br)cc12	melting point	124 °C
O=C1CC[C@H]2CCc3ccccc3[C@@H]2O1	melting point	138 to 141 °C
COc1ccc(CC(N)C(=O)NC2C(CO)OC(n3cnc4c(N(C)C)ncnc43)C2O)cc1 (configuration not stated)	melting point	176 °C
CC(=Cc1ccc(F)cc1)[N+](=O)[O-]	melting point	64 to 67 °C
CSc1ccc(Br)cc1	melting point	38.5 °C
CCc1c(C)cc(C)cc1C	melting point	-16 °C
CC1(C)CC(=O)C2=C(C1)Nc1ccc3ccccc3c1C2c1ccc(O)cc1 (configuration not stated)	melting point	314 °C
O=CC(C=O)c1ccc2ccccc2n1	melting point	198 to 202 °C
c1cc2c(cc1N1N=N1)OCO2	melting point	129 °C
O=C1C=CC(=O)N1c1ccc(Br)cc1	melting point	135 to 137 °C
COc1c(OC)c(=O)c1=O	melting point	55 to 57 °C
Cc1cc(S(=O)(=O)Cl)ccc1Br	melting point	59 °C
O=C(O)c1ccc(Cn2cncn2)cc1	melting point	227 to 229 °C
N#C/C(=N/Nc1ccc(Br)cc1)c1nc(-c2ccccc2)cs1	melting point	169 °C
CC(C)(C)OC(=O)N1CC(=O)CC1C(=O)O (configuration not stated)	melting point	155 to 156 °C
O=C(O)c1cc(C(F)(F)F)ccc1N1CCOCC1	melting point	175 to 177 °C
O=C1C=C(NCc2cccc(Cl)c2)C(=O)c2ccccc21	melting point	191 °C
CCOC(=O)c1cc(C)n(Cn2nc(C(=O)OCC)cc2C)n1	melting point	130 °C
C(=Nc1ccccc1)=Nc1ccccc1	melting point	169 °C
O=C(O)c1cccc(C(=O)c2ccccc2)c1	melting point	164 °C
Cc1c(C)c(C)c(C(=O)O)c(C)c1C	melting point	210 °C
N#CCNCC#N	melting point	77 °C
NC(=S)Nc1ccccc1[N+](=O)[O-]	melting point	136 to 137 °C
O=C(O)COc1ccc(OC(F)(F)F)cc1	melting point	84 to 86 °C
CC(C)OC(C)(C)C	melting point	-88 °C
N=C1c2ccccc2C(=O)N1c1n[nH]c2ncccc12	melting point	252 to 255 °C
O=S(=O)(O)CCNC1CCCCC1	melting point	320 °C
SC1CCCCC1	melting point	-30 °C
CC(C)(C)c1nc(N)nc(O)n1	melting point	275 °C
Cc1nn(-c2ccccc2)nc1C(=O)NN	melting point	123 to 125 °C
N#Cc1cc(F)cc(Br)c1	melting point	43 to 46 °C
Cn1ccc(-c2cccc(C(=O)Oc3c(F)c(F)c(F)c(F)c3F)c2)n1	melting point	126 to 127 °C
C[C@]12CCC(=O)C=C1CCC[C@@H]2O	melting point	57 °C
NS(=O)(=O)c1ccccc1[N+](=O)[O-]	melting point	191 °C
CC1(C)C2CCC1(CS(=O)(=O)Cl)C(=O)C2 (configuration not stated)	melting point	66 °C
CCOC(=O)c1ccc([N+](=O)[O-])cc1NC(=O)c1ccccc1	melting point	179 °C
CCOP(=O)(OCC)ON1C(=O)c2cccc3cccc(c23)C1=O	melting point	177 °C
CC1=C(C(=O)OCc2ccccc2)C(c2ccccc2)NC(=S)N1 (configuration not stated)	melting point	175 °C
COc1ccc(C2CCCCC2)cc1N	melting point	66 to 68 °C
CCOc1c(NN(C)C)c(=O)c1=O	melting point	130 to 132 °C
COC(=O)c1cc(C(=O)OC)c(C(=O)OC)cc1C(=O)OC	melting point	144 °C
Cn1ccnc1C=O	melting point	35 to 39 °C
Cc1c(CCO)c(=O)n2c([nH]c3ccccc32)c1C#N	melting point	250 °C
O=C(O)c1cc(Cl)nnc1Cl	melting point	139 °C
CSc1nc(N)nc(C(C)(C)C)n1	melting point	102 to 104 °C
Cl/C(=C\c1ccccc1)c1cccc2ccccc12	melting point	117 °C
COc1cc2c(cc1OC)C(c1ccc(F)cc1)N(C(C)=O)CC2 (configuration not stated)	melting point	162 to 164 °C
O=C(O)c1cccc(-c2ccncc2)c1	melting point	268 °C
Cc1cc(-c2cc(C)c(O)c(C)c2)cc(C)c1O	melting point	222 °C
CC1(C)CC(=O)C2=C(C1)Nc1ccc3ccccc3c1C2c1ccc(F)cc1 (configuration not stated)	melting point	204 °C
CC(=O)Oc1ccc([N+](=O)[O-])cc1	melting point	76 to 79 °C

###

Tick t if melting point is 200 °C or greater. Tick f if melting point is less than 200 °C.

molecule	qualitativeLabel
C/C=C/C=C/C(=O)OC	f
O=[N+]([O-])c1ccc(CCc2ccc([N+](=O)[O-])cc2)cc1	f
O=[N+]([O-])c1cc(N(CCO)CCO)ccc1NCCO	f
CC(=O)Oc1cc(C)ccc1C1(C)CC(C)(C)c2ccc(C)cc2O1 (centres undefined)	f
O=C1NC(=O)C(=Cc2ccc(-c3cccc([N+](=O)[O-])c3)o2)C(=O)N1	t
CC=CC=CC	f
COc1cc(OC)c2cc(C(=O)c3cccc4ccccc34)c(=O)oc2c1	t
CC12CCC3c4ccc(OC(=O)N(CCCl)CCCl)cc4CCC3C1CCC2O (centres undefined)	f
CC(=O)CC(=O)Nc1ccc(-c2ccc(NC(=O)CC(C)=O)c(C)c2)cc1C	t
CC1=CCC(=C(C)C)CC1	f
NC1C2CN(c3nc4c(cc3F)c(=O)c(C(=O)O)cn4-c3ccc(F)cc3F)CC12 (centres undefined)	t
O=C(O)c1cc(=O)[nH]c(=O)[nH]1	t
CCC(C)(C)OC(N)=O	f
